A collection of compounds and their measured melting point

| compound | melting point |
| --- | --- |
| O=C(Nc1ccc(C(=O)N2CCCc3ccccc32)cc1)c1cccc(O)c1 | 217 to 218 °C |
| CCOC(=O)c1cc(=O)c(Cl)c(-c2ccccc2)o1 | 103 to 105 °C |
| Cc1ccc(S(=O)(=O)N2CC3CCCNC3C2)cc1 (stereo not given) | 95 to 97 °C |
| CCCc1nc(N)c(C(=O)OC)[nH]1 | 133 to 136 °C |

Lookup: Could you please provide reported melting point for CC(N)Cc1ccc(OCC(=O)NCCc2ccc(O)cc2)cc1 (stereo not given) ? Thanks!
Found: 160 to 163 °C

Lookup: Give me measured melting point, please, for this compound: C=CC[C@H](C(N)=O)[C@@H](CC(C)C)C(=O)NC1N=C(N(C)C)c2ccccc2N(C)C1=O (stereo not given in full)
Found: 230 to 232 °C

Lookup: Consider the compound COc1ccc2c(n1)c(CCNC(C)=O)c1n2CCCc2ccccc2-1 . State its measured melting point.
Found: 73 to 74 °C

Lookup: For CC(=O)C(=Cc1ccc([N+](=O)[O-])cc1)CC(=O)OCCC#N , write its melting point.
Found: 98 to 100 °C

Lookup: Indicate the recorded melting point value for this compound: CCOC(=O)C(=CNc1coc2cc(OC)ccc2c1=O)C(=O)OCC
Found: 139 to 141 °C

Lookup: Indicate the recorded melting point value for this compound: O=C(Nc1ccc(-n2nc(C(F)(F)F)cc2C(F)(F)F)cc1)c1cccc(Br)c1
Found: 158 to 160 °C

Lookup: Look up and state reported melting point for CCCCN1CCC(NC(=O)c2cnc3c(OC)cccc3c2Nc2ccc(C(=O)NC3CCN(Cc4ccccc4)CC3)cc2)CC1
Found: 215 to 220 °C
